The reported numbers originate from ChEMBL document CHEMBL3351627.

protocol_text: Cytotoxicity against mouse fibroblasts at 5 to 200 uM after 24 to 48 hrs by trypan blue exclusion assay
Format: cell-based
experimental_setup: fibroblast
attribute_measured: Activity

For record O=C(NCCN1OC[C@@H](NC(=O)c2cccc(O)c2O)C1=O)c1cccc(O)c1O the listed Activity is Non-toxic

For record O=C(N[C@@H]1CON(CCOC(=O)c2cccc(O)c2O)C1=O)c1cccc(O)c1O the listed Activity is Non-toxic

For record O=C(N[C@@H]1CON(CCc2c[nH]cn2)C1=O)c1cccc(O)c1O the listed Activity is Non-toxic

###

protocol_text: Iron chelating activity of the compound at pH 7.4 by UV-visible spectrophotometric titration
Type: physicochemical
attribute_measured: Activity

Some molecules with known Activity results, for comparison:
For record O=C(NCCN1OC[C@@H](NC(=O)c2ccc3ccccc3n2)C1=O)c1ccc2ccccc2n1 the listed Activity is Not Active

For record O=C(N[C@@H]1CON(CCCCOC(=O)c2cccc(O)c2O)C1=O)c1cccc(O)c1O the listed Activity is Active

For record O=C(NCCOC1=NOC[C@H]1NC(=O)c1cccc(O)c1O)c1cccc(O)c1O the listed Activity is Active

For record O=C(NCCN1OC[C@@H](NC(=O)c2cccc(O)c2O)C1=O)c1cccc(O)c1O the listed Activity is Active

For record O=C(NCCN1OC[C@@H](NC(=O)c2ccc3cccc(O)c3n2)C1=O)c1ccc2cccc(O)c2n1 the listed Activity is Not Active

Others:
For record O=C(N[C@@H]1CON(CCOC(=O)c2cccc(O)c2O)C1=O)c1cccc(O)c1O the listed Activity is Active
